# ASSAY_SYSTEM: hGLP-1R (Homo sapiens, UniProt P43220)
# Sequence (P43220 24-463): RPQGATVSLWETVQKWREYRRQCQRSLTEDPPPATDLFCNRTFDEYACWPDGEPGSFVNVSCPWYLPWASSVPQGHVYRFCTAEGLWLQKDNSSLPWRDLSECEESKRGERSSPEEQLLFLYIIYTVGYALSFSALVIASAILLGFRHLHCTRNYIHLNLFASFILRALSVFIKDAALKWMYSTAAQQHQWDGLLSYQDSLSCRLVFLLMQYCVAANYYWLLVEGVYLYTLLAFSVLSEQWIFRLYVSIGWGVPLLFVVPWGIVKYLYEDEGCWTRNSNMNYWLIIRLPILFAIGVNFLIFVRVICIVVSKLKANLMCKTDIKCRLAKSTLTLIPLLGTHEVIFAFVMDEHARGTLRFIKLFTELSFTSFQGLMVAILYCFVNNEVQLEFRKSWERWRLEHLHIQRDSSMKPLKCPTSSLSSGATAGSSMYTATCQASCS
# ASSAY_METHOD_TEXT: Functional cAMP activation in the presence of 0.1% casein (no HSA);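 note: intracellular cAMP rise after 30 min at 37 °C read by HTRF, normalized between buffer only (0%) and maximal control ligand (100%), four-parameter variable-slope fit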
# Format: cell-based
# ASSAY_SETUP: in the presence of 0.1% casein (no HSA); geometric mean; read-out: Relative cAMP EC50, hGLP-1R
Starred links: 1 amine or outer side, 2 acyl side, 3 side chain; linkers in the order of their positions; H or OH if unused. Non-standard residues stand in square brackets, D forms with d. Groups on a side chain read outwards from the residue. No end group written: not given here. *: point of attachment. C20 diacid = O=C(O)CCCCCCCCCCCCCCCCCCC(=O)*; C18 diacid = O=C(O)CCCCCCCCCCCCCCCCC(=O)*; αMePhe(2-F) = C[C@](N)(Cc1ccccc1F)C(=O)O; γGlu = O=C(O)[C@H](CCC(=O)[*:2])N[*:1]; αMe4Pal = C[C@](N)(Cc1ccncc1)C(=O)O; αMeY = C[C@](N)(Cc1ccc(O)cc1)C(=O)O; 4Pal = N[C@@H](Cc1ccncc1)C(=O)O; αMeL = CC(C)C[C@](C)(N)C(=O)O; Orn = NCCC[C@H](N)C(=O)O; AEEA = NCCOCCOCC(=O)O; Aib = CC(C)(N)C(=O)O
PROPERTY_LABEL: pEC50
Answers are plain numbers, as −log10 of the molar value.

Could you tell me pEC50 for each of these substances? They are listed below.
1. H-Y[Aib]QGT[αMePhe(2-F)]TSDFSILLDKQAQK([AEEA-AEEA-γGlu-C20 diacid])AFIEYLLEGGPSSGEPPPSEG-NH2 [Example 346]
2. H-Y[Aib]QGTFTSDFS[Orn][αMeL]LDKK([AEEA-AEEA-γGlu-C18 diacid])AQ[Aib]AFIEYLLE[Aib]G[4Pal]SSGAPPPSGS-NH2 [Example 183]
3. H-H[Aib]QGT[αMePhe(2-F)]TSDYSILLDKK([AEEA-γGlu-C20 diacid])AA[Aib]AFIEYLIEAGPSSGEPPPSEG-NH2 [Example 298]
4. Y[Aib]QGTFTSD[4Pal]SR[αMeL]LDKK([AEEA-γGlu-C18 diacid])AQ[αMe4Pal]AFIE[αMeY]LIEGGPSSGAPPPSGS-NH2 [Example 843]
5. H-Y[Aib]QGTFTSDFS[Orn][αMeL]LDKK([γGlu-γGlu-C18 diacid])AQ[Aib]AFIEYLLE[Aib]GPSSGAPPPSGS-NH2 [Example 201]

Response:
8.93
8.30
9.56
9.06
8.50
